Numbers sourced from the supplement of paper PMC9170038.

system: MS2 coat protein; experiment: apparent KD of MS2 coat protein; higher = weaker reporter binding; details: Eterna round: R107; input ligand: arginine 13.2 mM
Each entry falls in a class defined on apparent KD of MS2 coat protein; the bands are Low (below 0.02 µM), Medium (0.02 µM to below 0.06 µM), High (0.06 µM or more)

[
  {
    "record sequence": "UUUGAUAUGACAGAUACCAGCGUGUUGUUGAACAUGAGGAUCACCCAUGUAGUGAUCAAGCGCCCUUGGCAGCUGGUGUGUUAGG [7.P]",
    "assigned class": "Medium"
  },
  {
    "record sequence": "CGUGCUAGGGCGGCCGCCACUGUGGCUACGGUACAUGAGGAUCACCCAUGUUUGUGGUUGAUCUACAGGACCGGGCCCUGGCACG [Radiaerdi]",
    "assigned class": "High"
  },
  {
    "record sequence": "CACAUGAGGAUCACCCAUGUCUGAACUGAAGGAGCGCUAAAUAAGGCAGGUAGGUCGCGGAAUCCUGUGUGCAUAUGCACACGGG [9.X]",
    "assigned class": "Medium"
  },
  {
    "record sequence": "UAUAUGGUGAUGGAUACCAGCAGAGAAAACGUUUAUCCUAACAUGAGGAUCACCCAUGUAUGCCCUUGGCAGCUGUUGUUAUAUA [8.M]",
    "assigned class": "Medium"
  },
  {
    "record sequence": "GCGCUAUUUAUUGAUACCAGAUACAGGAAUCACAUGAGGAUCACCCAUGUGGAAUGAAGGAUCCCUUGGCAGCAAUAGUCAAAAU [theeternabot_sameState_MS2_Theo_B_9]",
    "assigned class": "Low"
  },
  {
    "record sequence": "GGGUCAGGCGCGGCCGCCACUGCGGUGAUGUGACAUGAGGAUCACCCAUGUUGUCAUGUGGCACAUAGGACCGGGUGCCUGGCCC [#1 Exclusion - Tryptophan B Attempt #6 (HarryS)]",
    "assigned class": "Medium"
  },
  {
    "record sequence": "AAUAAACAUGAGGAUCACCCAUGUAGGGUGCGAGGACCGGUACGGCCGCCACUCGGGUGAAAACAUGAAAAUCACCCAUGUAAAA [Mat - Exclusion - Trytophan A - D24]",
    "assigned class": "High"
  },
  {
    "record sequence": "ACGGAGAUUGCUAAAUGUUGGCGAGCGGAUACCAGCCUAUAAUCGGGCCCUUGGCAGCCGACAUGAGGAUCACCCAUGUAAACAA [Gelelaor]",
    "assigned class": "Low"
  },
  {
    "record sequence": "GGAUAGGACGGAAGGAGCGACGUGAGGCUAAUGUCCAGUCUUCUACAUGAGGAUCACCCAUGUCAGGUAGGUCGCCGUCCUAUCG [#21 Exclusion - Arginine B]",
    "assigned class": "Medium"
  },
  {
    "record sequence": "UGUAUGUGAUCUGAUACCAGACGUGUAAACCUGAGGAUCACCCUGGUAAGGCGAAAGCCAGUCCCUUGGCAGCAGAUCGCAUACU",
    "assigned class": "Medium"
  },
  {
    "record sequence": "CUCUGGUGCUGAGUGAGUGUCGUGACUGAUACCAGAUGCCUUUACAUCCCUUGGCAGCAGUACAUGAGGAUCACCCAUGUAUUCC [Rireusrama]",
    "assigned class": "Low"
  }
]

* * *

test system: MS2 coat protein; assay: apparent KD of MS2 coat protein, switch ON state; designed switch direction (-1 OFF switch, 1 ON switch): -1; higher = weaker reporter binding; conditions: FMN input: 0 or 200 uM; Eterna round: R93 (includes R88 designs)
observable: apparent KD of MS2 coat protein (nM)

[
  {
    "record sequence": "AAAUUAGGAGGAUAUACAUGAGGAUCACCCAUGUGACGAUGUUACUGCAUGAAGUCAAGUAGAAGGUCUAAGAA [Cearar]",
    "tested on": "MS2 coat protein",
    "meas value": 31.7
  },
  {
    "record sequence": "AAGAAUGGAGGAUAUACAUGAGGAUCACCCAUGUAAAAGAAAGAAGGGAAAGAGAAAAGUAGAAGGCCAAAGAA [Khuinefertemre Taharqa]",
    "tested on": "MS2 coat protein",
    "meas value": 26.5
  },
  {
    "record sequence": "AAGAUCAGAGGAUAUACAUAAGGUGAUGAAAACAUCGCCAAACAUGAGGAUCACCCAUGUAGAAGGCUGAUCAA [JL EX2 1]",
    "tested on": "MS2 coat protein",
    "meas value": 118
  },
  {
    "record sequence": "ACCAAUGCAGGAUAUACAUGAGGAUCACCCAUGUAUAACCUACAUAGAUGAUAAAAAUGUAGAAGGGCAUUGGA [EX3 232: Super Stable 32]",
    "tested on": "MS2 coat protein",
    "meas value": 16
  },
  {
    "record sequence": "UAGAUACAUGAGGAUCACCCAUGUGAGGAUAUCGUUUGUACUAAUCUUUUAGUAUUUUCGAGAAGGCACAUAUA [Ex1Try2_Neo]",
    "tested on": "MS2 coat protein",
    "meas value": 48.5
  },
  {
    "record sequence": "AAAAAACAUGAGGAUCACCCAUGUGAGGAUAUCGGAAAAGGAAAAAAAAAAAAGAAGACGAGAAGGCACACCAA",
    "tested on": "MS2 coat protein",
    "meas value": 28.6
  },
  {
    "record sequence": "AGCUAGUCAGGAUAUACGAACAAGACAAAAGACGAGAACGGACAUGAGGAUCACCCAUGUAGAAGGGACUAGCA [Diamond 8]",
    "tested on": "MS2 coat protein",
    "meas value": 25.7
  }
]

* * *

system: K4 kissing-loop RNA reporter; test: apparent KD of K4 kissing-loop reporter; higher = weaker reporter binding; settings: Eterna round: R107; input ligand: theophylline 20 uM;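 note: bound reporter read as fluorescence of individual clusters on recovered sequencing chips by microscopy, with normalized cluster intensities fitted with a binding model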

[
  {
    "record sequence": "AAUAGGGAUAGUGAUGUUAUCCCUUAUGAUACCAGUGCCAUCGGACACCCUUGGCAGCAUACGGGCAGUGAUGUUGUCCUUGGUG [Exclusion Theophylline A GF 16]",
    "tested on": "K4 kissing-loop RNA reporter",
    "apparent KD of K4 kissing-loop reporter": "94.8 nM"
  },
  {
    "record sequence": "CGCCACGACUGAAGGAGCGCGCCAGUGAUGUUGGACGGCUUUGUCAAGGAAACUGCACCGGUGCAGGUAGGUCGCAGUUCGUGGU [Quisbiri]",
    "tested on": "K4 kissing-loop RNA reporter",
    "apparent KD of K4 kissing-loop reporter": "588 nM"
  },
  {
    "record sequence": "GUGCGGCUAGUGAUGUUGGUUGCGUGGGAAGGAGCGCAGAAACAUGCAGGUAGGUCGCCCACACCUCUGAAAGAAGGUUAAUUCA [Biistian]",
    "tested on": "K4 kissing-loop RNA reporter",
    "apparent KD of K4 kissing-loop reporter": "231 nM"
  },
  {
    "record sequence": "CGCAGUGAUGUUGCGAGUAGCUACAGGGAAGGAGCGUGCUAGAGCACAGGUAGGUCGCCCACGCAGUGAUGUUGUGUCAAAGGGU [Exclusion Arginine A GF 11]",
    "tested on": "K4 kissing-loop RNA reporter",
    "apparent KD of K4 kissing-loop reporter": "179 nM"
  },
  {
    "record sequence": "AAAAUAAAUAGCAGUCACGGAGUGAUGUUCCGAGGACCGGUACGGCCGCCACUCGACCAGACAAAGUCUGGAUGGCGAGACUGCA [#SwitchBubble 19 #K4Early]",
    "tested on": "K4 kissing-loop RNA reporter",
    "apparent KD of K4 kissing-loop reporter": "392 nM"
  },
  {
    "record sequence": "CGUUUAUUGCAGGAUACCAGUACCCAUUAUGUACGUUUAUAGUAGAGUGAUGUUCUAAAGUACCCUUGGCAGCUUCCCGUGACCC [#22 K4 Theophylline B Exclusion]",
    "tested on": "K4 kissing-loop RNA reporter",
    "apparent KD of K4 kissing-loop reporter": "188 nM"
  },
  {
    "record sequence": "CGGUUAUAGCAGGAUACCAGUACCCAUUAUGUACGUUUAUAGUAGAGUGAUGUUCUAAAGUACCCUUGGCAGCUUCCCGUGACCC [#23 K4 Theophylline B Exclusion]",
    "tested on": "K4 kissing-loop RNA reporter",
    "apparent KD of K4 kissing-loop reporter": "265 nM"
  },
  {
    "record sequence": "GGAUAUGUAACAGAUACCAGCCGACGACAGUCACUGUGUCAUGUAGUGAUGUUACAAUCUGGCCCUUGGCAGCUGUCUCUGGUUU [theeternabot_exclusion_KL_Theo_B_27]",
    "tested on": "K4 kissing-loop RNA reporter",
    "apparent KD of K4 kissing-loop reporter": "250 nM"
  },
  {
    "record sequence": "AUAGAAAAGUGGCACCCUCACUAAAACAGUCGAGGACCGGUACGGCCGCCACUCGCGCGCUUUAGUGAUGUUAAAGCUAGGCGGA",
    "tested on": "K4 kissing-loop RNA reporter",
    "apparent KD of K4 kissing-loop reporter": "259 nM"
  },
  {
    "record sequence": "UGAGGAGAAUAUGAUACCAGCAGAGAGAGAGAGGAAGUAUAGUGAUGUUAUAUGAGAUAAUGCCCUUGGCAGCAUAAGAAGAAGG [#19 K4 Theophylline B Same State]",
    "tested on": "K4 kissing-loop RNA reporter",
    "apparent KD of K4 kissing-loop reporter": "178 nM"
  },
  {
    "record sequence": "CGGAACGCAUCGGCCGCCACUUUUAUCUGCAGUGAUGUUGCAGUAUCCGAGCAAGGCUGUUGUGAAAGGACCGGGAUGGUCCGUU [Tibeberi]",
    "tested on": "K4 kissing-loop RNA reporter",
    "apparent KD of K4 kissing-loop reporter": "97.4 nM"
  },
  {
    "record sequence": "CUAUAAGUGCCGAGUGAUGUUCGGCCAAUACGAGGACCGGUACGGCCGCCACUCGGUCAGUGAGUGCCCACCGGGCGUGGCUGAC [Leedgeis]",
    "tested on": "K4 kissing-loop RNA reporter",
    "apparent KD of K4 kissing-loop reporter": "253 nM"
  }
]
